These data points were gathered from PubChem BioAssay (NCATS).

- System: SKOV3
- EXPERIMENTAL DETAILS: Primary qHTS to identify gynecologic anti-cancer compounds using libraries of approved drugs and bioactive compounds (AID 1345084); further: on the % scale 0 is the no-effect control and ±100 the full control effect; nearly all actives have a fitted effect of over 55% in size
- ASSAY SETUP: Gynecologic cancer cell panel viability, ATPlite luminescence, 48 h; series mostly up to 57.5 µM
Results filed as inconclusive are left out. Calls of active or inactive are those of the source. The call rests on the fitted dose curve; in most records, active means well fitted cell-killing curve with a large enough effect; inconclusive means small, poorly fitted or top-dose-only effect, or effect the other way; inactive means flat fitted curve, though single readings scatter.
ENDPOINT LABEL: activity change, negative = cytotoxicity

>>> result("CC(=O)O[C@@H]1C[C@]2(C)[C@@]3(CCC4[C@@]5(C)CC[C@H](O[C@@H]6O[C@H](C(=O)O)[C@@H](O)[C@H](OC7OC(CO)C(O)C(O)[C@H]7O[C@@H]7O[C@@H](C)[C@H](O)[C@@H](O)[C@H]7O[C@@H]7OC[C@](O)(CO)[C@H]7O)[C@H]6OC6OC(CO)C(O)C(O)C6O)C(C)(C)C5CC[C@]42C)OC[C@@]12CCC(C)(C)CC23 (some centres undefined)")
"27.9% [at 6.55 µM] (inactive)"
>>> result("CC(=O)O[C@H]1CC(C)(C)CC2[C@]13CO[C@@]21CCC2[C@@]4(C)CC[C@H](O[C@@H]5OC[C@H](O[C@@H]6O[C@H](CO)[C@@H](O)[C@H](O)[C@H]6O[C@@H]6OC[C@@H](O)[C@H](O)[C@H]6O)[C@H](O)[C@H]5O[C@@H]5O[C@H](CO)[C@@H](O)[C@H](O)[C@H]5O)[C@@](C)(CO)C4CC[C@@]2(C)[C@]1(C)C[C@H]3O (some centres undefined)")
"-11.7% [at 11.6 µM] (inactive)"
>>> result("CC(=O)N[C@H]1[C@H](O[C@H]2CC[C@@]3(C)C(CC[C@]4(C)C3CC=C3C5CC(C)(C)CC[C@]5(C(=O)O)C(O)C[C@]34C)C2(C)C)O[C@H](CO[C@@H]2O[C@H](C)[C@H](O)[C@H](O)[C@H]2O[C@@H]2OC[C@@H](O)[C@H](O)[C@H]2O)[C@@H](O)[C@@H]1O (some centres undefined)")
"-11.9% [at 11.6 µM] (inactive)"
>>> result("COC1C(O)C(OC2CCC3(C)C(CCC45CCC6C7(COC(=O)C7)OC4(O)C6(C)CCC35)C2)OC(C)C1OC1OC(CO)C(OC2OC(CO)C(O)C(O)C2O)C(O)C1O (centres undefined)")
"-3.24% [at 11.6 µM] (inactive)"

* * *

- Test system: OV90
- EXPERIMENTAL DETAILS: Primary qHTS to identify gynecologic anti-cancer compounds using libraries of approved drugs and bioactive compounds (AID 1345084); further: on the % scale 0 is the no-effect control and ±100 the full control effect; nearly all actives have a fitted effect of over 55% in size
- ASSAY SETUP: Gynecologic cancer cell panel viability, ATPlite luminescence, 48 h; series mostly up to 57.5 µM
Results filed as inconclusive are left out. Active and inactive are the calls of the source. Calls follow the shape of the dose curve; as a rule, active = well fitted cell-killing curve with a large enough effect; inconclusive = small, poorly fitted or top-dose-only effect, or effect the other way; inactive = flat fitted curve, though single readings scatter.
ENDPOINT LABEL: outcome

>>> result("C/C(=C\\Cc1c(O)c(Cl)c(C)c(C=O)c1O)CC/C=C(\\C)[C@H]1CC(=O)C(C)(C)O1")
"inactive"
>>> result("COc1cc(NC(=O)c2cccc(-n3cc(NC(=O)Nc4cccc(C)c4)cn3)c2)cc(OC)c1OC")
"inactive"
>>> result("CCCCOC(=O)NS(=O)(=O)c1sc(CC(C)C)cc1-c1ccc(Cn2ccnc2)cc1")
"inactive"
>>> result("Cc1cc(C(=O)Nc2cc(Nc3ccc4c(/C=C/c5ccccn5)n[nH]c4c3)ccc2F)n(C)n1")
"inactive"
>>> result("Cc1ccc(F)cc1S(=O)(=O)N[C@@H]1CCN(Cc2ccc(OC(C)C)cc2)C1")
"inactive"
>>> result("Cc1cc(C)c2c(c1)C(N(Cc1cc(C(F)(F)F)cc(C(F)(F)F)c1)c1nnn(C)n1)CCCN2CC1CCC(C(=O)O)CC1 (centres undefined)")
"inactive"
>>> result("O=C(NCc1ccccc1)c1ccc2c(=O)n(-c3cccc(C(F)(F)F)c3)c(=S)[nH]c2c1")
"inactive"
>>> result("COc1cc(O)cc(/C=C/c2cccc(O)c2)c1")
"inactive"
>>> result("O=C(Nc1ccc(N(Cc2ccsc2)C(=O)Cn2nnc3ccccc32)cc1)C1CC1")
"inactive"

* * *

- Tested on: CAOV3
- EXPERIMENTAL DETAILS: Primary qHTS to identify gynecologic anti-cancer compounds using libraries of approved drugs and bioactive compounds (AID 1345084); further: on the % scale 0 is the no-effect control and ±100 the full control effect; nearly all actives have a fitted effect of over 55% in size
- ASSAY SETUP: Gynecologic cancer cell panel viability, ATPlite luminescence, 48 h; series mostly up to 57.5 µM
- Description: National Center for Advancing Translational Sciences [NCATS] Assay Overview: Chemotherapeutic drug responses vary from cancer to cancer and from patient to patient. […] ATPlite is a luminescence based assay reliant on the conversion of a luciferase substrate to light in the presence of ATP. As a cytotoxic compound will suppress growth and decrease the number of cells, the concentration of ATP will decrease, and less light signal will be detected in the well. […]
Results filed as inconclusive are left out. Calls of active or inactive are those of the source. Calls follow the shape of the dose curve; as a rule, active = well fitted cell-killing curve with a large enough effect; inconclusive = small, poorly fitted or top-dose-only effect, or effect the other way; inactive = flat fitted curve, though single readings scatter.
This listing pairs compounds with measured activity change, negative = cytotoxicity.
ENDPOINT LABEL: activity change, negative = cytotoxicity

>>> result("C=C1CO[C@@]2(O[C@H]3CC4C5CC=C6C[C@@H](O)C[C@@H](O[C@@H]7OC[C@H](O)[C@H](O[C@@H]8OC[C@@H](O)[C@H](O)[C@H]8O)[C@H]7O[C@@H]7O[C@@H](C)[C@H](OC(C)=O)[C@@H](OC(C)=O)[C@H]7OC(C)=O)[C@]6(C)C5CC[C@]4(C)[C@@H]3[C@@H]2C)[C@@H](O)[C@H]1OC1OC(C)C(O)C(O)C1O (stereo not given in full)")
"-13% [at 6.55 µM] (inactive)"
>>> result("CC1(C)CC[C@]23CO[C@@]4(CCC5[C@@]6(C)CC[C@H](O[C@@H]7OC[C@H](O[C@@H]8O[C@H](CO)[C@@H](O)[C@H](O)[C@H]8O[C@@H]8OC[C@@H](O)[C@H](O)[C@H]8O)[C@H](O)[C@H]7O)[C@@](C)(CO)C6CC[C@@]5(C)[C@]4(C)CC2=O)[C@@H]3C1 (stereo not given in full)")
"7.02% [at 11.6 µM] (inactive)"
>>> result("CC(=O)O[C@@H]1[C@@H](O)[C@H](O[C@@H]2[C@@H](O)[C@@H](O)[C@H](O[C@H]3[C@H](O[C@H]4[C@H](O[C@H]5CC[C@@]6(C)C(CC[C@]7(C)C6CC=C6[C@@H]8CC(C)(C)CC[C@]8(C(=O)O)CC[C@]67C)[C@]5(C)CO)O[C@H](CO)[C@@H](O)[C@@H]4O)OC[C@@H](O)[C@@H]3O)O[C@H]2C)OC[C@H]1O (stereo not given in full)")
"10.9% [at 11.6 µM] (inactive)"
>>> result("CCC(C)C(=O)O[C@H]1[C@H](O)[C@@]2(COC(C)=O)C(CC1(C)C)C1=CCC3[C@@]4(C)CC[C@H](O[C@@H]5O[C@H](C(=O)O)[C@@H](O)[C@H](O)[C@H]5O)[C@@](C)(CO)C4CC[C@@]3(C)[C@]1(C)C[C@@H]2O (stereo not given in full)")
"-4.8% [at 11.6 µM] (inactive)"
>>> result("C=CC(C)(O)CC/C=C(\\C)C(=O)OC1C(O)C(CO)OC(OC(=O)C23CCC(C)(C)CC2C2=CCC4C5(C)CCC(OC6OC(COC7OCC(OC(C)=O)C(O)C7OC7OC(COC(C)=O)C(O)C(O)C7OC(C)=O)C(O)C(O)C6OC6OCC(O)C(O)C6O)C(C)(C)C5CCC4(C)C2(C)C(O)C3O)C1OC1OCC(OC2OCC(O)C(OC3OCC(O)C(O)C3O)C2O)C(O)C1O (stereo not given)")
"-0.149% [at 6.55 µM] (inactive)"
>>> result("CO[C@H]1[C@@H](O)[C@H](O[C@H]2CC[C@@]3(C)C(CCC4C3CC[C@]35COC6(COC(=O)C6)C3CCC45O)C2)O[C@@H](C)[C@@H]1OC1OC(CO)C(OC2OC(CO)C(O)C(O)C2O)C(O)C1O (stereo not given in full)")
"-7.69% [at 11.6 µM] (inactive)"
>>> result("CC(=O)O[C@@H]1C[C@]2(C)[C@@]3(CCC4[C@@]5(C)CC[C@H](O[C@@H]6O[C@H](C(=O)O)[C@@H](O)[C@H](OC7OC(CO)C(O)C(O)[C@H]7O[C@@H]7O[C@@H](C)[C@H](O)[C@@H](O)[C@H]7O[C@@H]7OC[C@](O)(CO)[C@H]7O)[C@H]6OC6OC(CO)C(O)C(O)C6O)C(C)(C)C5CC[C@]42C)OC[C@@]12CCC(C)(C)CC23 (stereo not given in full)")
"0.174% [at 6.55 µM] (inactive)"
>>> result("COC1C(O)C(OC2CCC3(C)C(CCC45CCC6C7(COC(=O)C7)OC4(O)C6(C)CCC35)C2)OC(C)C1OC1OC(CO)C(OC2OC(CO)C(O)C(O)C2O)C(O)C1O (stereo not given)")
"5.13% [at 11.6 µM] (inactive)"
>>> result("COc1ccc(CN2CCN(CCCSc3cc(C(C)(C)C)c(O)c(C(C)(C)C)c3)CC2)c(OC)c1OC")
"11% [at 11.6 µM] (inactive)"
>>> result("CCC/C=C/C(=O)O[C@H]1CC(C)(C)CC2[C@@]13[C@H](O)C[C@]1(C)[C@@]2(CCC2[C@@]4(C)CC[C@H](O[C@@H]5O[C@H](C(=O)O)[C@@H](O)[C@H](O[C@@H]6O[C@H](CO)[C@H](O)[C@H](O)[C@H]6O[C@@H]6O[C@@H](C)[C@H](O)[C@@H](O)[C@H]6O[C@@H]6OC[C@](O)(CO)[C@H]6O)[C@H]5O[C@@H]5O[C@H](CO)[C@H](O)[C@H](O)[C@H]5O)C(C)(C)C4CC[C@]21C)O[C@H]3O (stereo not given in full)")
"-15.9% [at 6.55 µM] (inactive)"
>>> result("C[C@@H]1O[C@@H](O[C@H]2[C@H](OC(=O)[C@]34CCC(C)(C)C[C@H]3C3=CCC5[C@@]6(C)C[C@H](O)[C@H](O[C@@H]7O[C@H](C(=O)O)[C@@H](O)[C@H](O)[C@H]7O)[C@@](C)(CO)C6[C@H](O)C[C@@]5(C)[C@]3(C)C[C@H]4O)O[C@@H](CO)[C@@H]2O)[C@H](O)[C@H](O)[C@H]1O[C@@H]1OC[C@@H](O)[C@H](O[C@H]2OC[C@](O)(CO)[C@H]2O)[C@H]1O (stereo not given in full)")
"-15.4% [at 6.55 µM] (inactive)"
>>> result("CC1(C)CC[C@]2(C(=O)O)[C@H](O)C[C@]3(C)C(=CCC4[C@@]5(C)CC[C@H](O[C@@H]6O[C@H](CO[C@@H]7OC[C@H](O)[C@H](O)[C@H]7O[C@@H]7OC[C@H](O)[C@H](O)[C@H]7O)[C@@H](O)[C@H](O)[C@H]6O)C(C)(C)C5CC[C@]43C)[C@@H]2C1 (stereo not given in full)")
"6.12% [at 11.6 µM] (inactive)"
>>> result("CC1(C)CCC2(C(=O)OC3OC(COC4OC(CO)C(O)C(O)C4O)C(O)C(O)C3O)CCC3(C)C(=CCC4C5(C)CCC(OC6OCC(O)C(O)C6O)C(C)(C)C5CCC43C)C2C1O (stereo not given)")
"1.87% [at 11.6 µM] (inactive)"
>>> result("CC(=O)O[C@H]1CC(C)(C)CC2[C@]13CO[C@@]21CCC2[C@@]4(C)CC[C@H](O[C@@H]5OC[C@H](O[C@@H]6O[C@H](CO)[C@@H](O)[C@H](O)[C@H]6O[C@@H]6OC[C@@H](O)[C@H](O)[C@H]6O)[C@H](O)[C@H]5O[C@@H]5O[C@H](CO)[C@@H](O)[C@H](O)[C@H]5O)[C@@](C)(CO)C4CC[C@@]2(C)[C@]1(C)C[C@H]3O (stereo not given in full)")
"-0.697% [at 11.6 µM] (inactive)"
>>> result("CC(CCC1(O)OC2CC3C4CC=C5CC(O[C@@H]6O[C@H](CO)[C@@H](O[C@@H]7O[C@@H](C)[C@H](O)[C@@H](O)[C@H]7O)[C@H](O)[C@H]6O[C@@H]6O[C@@H](C)[C@H](O)[C@@H](O)[C@H]6O)CCC5(C)C4CCC3(C)C2C1C)CO[C@@H]1O[C@H](CO)[C@@H](O)[C@H](O)[C@H]1O (stereo not given in full)")
"-11% [at 11.6 µM] (inactive)"
